Catalogue of compounds with associated IC50
SYSTEM: CDK2/CycE (Homo sapiens, UniProt P24941)
Construct: GST
ASSAY_INFO: CDK2/CycE kinase assay (TR-FRET)
DETAILS: avg, read-out: CDK2 avg (IC50 [mol/l])
Protocol: CDK2/CycE -inhibitory activity of compounds of the present invention was quantified employing the CDK2/CycE TR-FRET assay as described in the following paragraphs. […] The resulting mixture was incubated 1 h at 22° C. to allow the formation of complex between the phosphorylated biotinylated peptide and the detection reagents. Subsequently the amount of phosphorylated substrate was evaluated by measurement of the resonance energy transfer from the Eu-chelate to the streptavidine-XL. […]
REPORTED_ENDPOINT: IC50

{"COMPOUND": "Cc1nsc(Nc2cnc(C(F)(F)F)cn2)c1C(=O)Nc1ccc(OCCNC(=O)OC(C)(C)C)c(F)c1", "REPORTED_ENDPOINT": "IC50", "OBSERVED_VALUE": "> 20 µM"}
{"COMPOUND": "Cc1nsc(Nc2cnc3ccccc3n2)c1C(=O)Nc1ccc(Oc2cccc(C(F)(F)F)c2)nc1", "REPORTED_ENDPOINT": "IC50", "OBSERVED_VALUE": "≥ 20 µM"}
{"COMPOUND": "Cc1nsc(Nc2cnc(C(F)(F)F)cn2)c1C(=O)Nc1ccc(O[C@@H]2CCN(CC(F)F)C2)nc1", "REPORTED_ENDPOINT": "IC50", "OBSERVED_VALUE": "> 20 µM"}
{"COMPOUND": "Cc1nsc(Nc2ccc(C#N)cn2)c1C(=O)Nc1ccc(OC2CCCN(C(=O)OC(C)(C)C)C2)nc1 (stereo not drawn)", "REPORTED_ENDPOINT": "IC50", "OBSERVED_VALUE": "≥ 20 µM"}
{"COMPOUND": "Cc1nsc(Nc2ccc(C#N)cn2)c1C(=O)Nc1cccc(C(=O)NC(C)C)c1", "REPORTED_ENDPOINT": "IC50", "OBSERVED_VALUE": "> 20 µM"}
{"COMPOUND": "CCN1CCC(COc2ccc(NC(=O)c3c(C)nsc3Nc3cnc(C(F)(F)F)cn3)cn2)C(F)(F)C1 (stereo not drawn)", "REPORTED_ENDPOINT": "IC50", "OBSERVED_VALUE": "> 20 µM"}
{"COMPOUND": "Cc1nsc(Nc2cnc(C(F)(F)F)cn2)c1C(=O)Nc1ccc(F)c(OCC2CCN(CC(F)(F)F)CC2)c1", "REPORTED_ENDPOINT": "IC50", "OBSERVED_VALUE": "≥ 20 µM"}
{"COMPOUND": "Cc1nsc(Nc2ccc(C#N)cn2)c1C(=O)Nc1ccc(Oc2cccc(C(F)(F)F)c2)nc1", "REPORTED_ENDPOINT": "IC50", "OBSERVED_VALUE": "≥ 20 µM"}
{"COMPOUND": "Cc1nsc(Nc2cnc(C(F)(F)F)cn2)c1C(=O)Nc1ccc(O[C@@H]2CCCN(CC(F)F)C2)nc1", "REPORTED_ENDPOINT": "IC50", "OBSERVED_VALUE": "> 20 µM"}
{"COMPOUND": "Cc1nsc(Nc2cnc(C(F)(F)F)cn2)c1C(=O)Nc1ccc(OC[C@H]2CCCN(CCC(F)(F)F)C2)nc1", "REPORTED_ENDPOINT": "IC50", "OBSERVED_VALUE": "> 20 µM"}
{"COMPOUND": "COc1ccc(NC(=O)c2c(C)nsc2Nc2cnc3ccccc3n2)c(CC#N)n1", "REPORTED_ENDPOINT": "IC50", "OBSERVED_VALUE": "> 20 µM"}
{"COMPOUND": "Cc1nsc(Nc2cnccn2)c1C(=O)Nc1ccc(C(=O)OC(C)(C)C)cc1", "REPORTED_ENDPOINT": "IC50", "OBSERVED_VALUE": "> 20 µM"}
{"COMPOUND": "Cc1nsc(Nc2cnc3ccccc3n2)c1C(=O)Nc1ccc(NCC2CCN(C(=O)OC(C)(C)C)CC2)nc1", "REPORTED_ENDPOINT": "IC50", "OBSERVED_VALUE": "> 20 µM"}
{"COMPOUND": "CCN1CCC(Oc2ccc(NC(=O)c3c(C)nsc3Nc3cnc(C(F)(F)F)cn3)cn2)C(F)(F)C1 (stereo not drawn)", "REPORTED_ENDPOINT": "IC50", "OBSERVED_VALUE": "> 20 µM"}
{"COMPOUND": "Cc1nsc(Nc2cnc3ccccc3n2)c1C(=O)Nc1ccc(C(=O)N2CCN(CC(F)F)CC2)cc1", "REPORTED_ENDPOINT": "IC50", "OBSERVED_VALUE": "> 20 µM"}

These measurements were taken from patent US20170334899A1.
